Attribute: melting point

The cases that follow already have their melting point on record.
Chemical smiles | Measured quantity | Endpoint value
CN(Cc1cc2nc(-c3ccc(N)nc3)nc(N3CCOCC3)c2s1)c1ncc(C(=O)NO)cn1 | melting point | 175 to 181 °C
CN(Cc1cc2nc(-c3ccc(OCCN)nc3)nc(N3CCOCC3)c2s1)c1ncc(C(=O)NO)cn1 | melting point | 110 to 115 °C
CN(Cc1cc2nc(-c3ccc(CO)cc3)nc(N3CCOCC3)c2s1)c1ncc(C(=O)NO)cn1 | melting point | 218 to 223 °C
CN(Cc1cc2nc(-c3cccc4[nH]ncc34)nc(Nc3ccccc3)c2s1)c1ncc(C(=O)NO)cn1 | melting point | 232 to 235 °C
CN(Cc1cc2nc(-c3cnc(N)nc3)nc(N3CCOCC3)c2s1)c1ncc(C(=O)NO)cn1 | melting point | 175 to 181 °C
CN(Cc1cc2nc(-c3ccc(C(N)=O)cc3)nc(N3CCOCC3)c2s1)c1ncc(C(=O)NO)cn1 | melting point | 200 to 202 °C

Challenge: Look at this molecule and give its reported melting point. `O=C(NO)c1cnc(N2CCN(Cc3cc4nc(-c5cccc6[nH]ncc56)nc(N5CCOCC5)c4s3)CC2)nc1`
Response given: 209 to 221 °C

Challenge: Now the molecule `CN(Cc1cc2nc(-c3cccc(CN)c3)nc(N3CCOCC3)c2s1)c1ncc(C(=O)NO)cn1`
Response given: 173 to 176 °C

Challenge: Also `CS(=O)(=O)N1CCN(Cc2cc3nc(-c4cccc5c4cnn5CCCCCC(=O)NO)nc(N4CCOCC4)c3s2)CC1` ?
Response given: 186 to 187 °C

Challenge: Also need `CN(C)c1ccc(-c2nc(N3CCOCC3)c3sc(CN(C)c4ncc(C(=O)NO)cn4)cc3n2)cc1` , thanks.
Response given: 208 to 210 °C

Challenge: What about `O=C(NO)c1ccc(NCc2cc3nc(-c4cccc5[nH]ncc45)nc(N4CCOCC4)c3s2)nc1` ?
Response given: 218 to 220 °C

Challenge: Similarly, `Cc1nc(N)ncc1-c1nc(N2CCOCC2)c2sc(CN(C)c3ncc(C(=O)NO)cn3)cc2n1` ?
Response given: 195 to 198 °C

Challenge: Proceed to `CN(CCCCCC(=O)NO)Cc1cc2nc(-c3cccc4[nH]ncc34)nc(N3CCOCC3)c2s1`
Response given: 115 to 118 °C

---

The entries below are paired with their reported melting point.

Previously resolved entries follow.
Molecule | Endpoint value
O=C(CCCCNCc1cc2nc(-c3cccc4[nH]ncc34)nc(N3CCOCC3)c2s1)NO [Compound 42] | 145 to 147 °C
CC(O)c1ccc(F)c(-c2nc(N3CCOCC3)c3sc(CN(C)c4ncc(C(=O)NO)cn4)cc3n2)c1 (centres unmarked) [Compound 295] | 230 to 235 °C
O=C(CCCCCNCc1cc2nc(-c3cccc4[nH]ncc34)nc(N3CCOCC3)c2s1)NO [Compound 43] | 128 to 130 °C
CCc1ncc(-c2nc(N3CCOCC3)c3sc(CN(C)c4ncc(C(=O)NO)cn4)cc3n2)cn1 [Compound 121] | 153 to 156 °C
CC(=O)Nc1ccc(-c2nc(N3CCOCC3)c3sc(CN(C)c4ncc(C(=O)NO)cn4)cc3n2)cn1 [Compound 112] | 197 to 201 °C
CS(=O)(=O)N1CCN(Cc2cc3nc(-c4cccc5nn(CCCCCCC(=O)NO)cc45)nc(N4CCOCC4)c3s2)CC1 [Compound 9] | 123 to 126 °C

Challenge: Could you tell me which melting point is on file for CC(=O)Nc1cccc(-c2nc(N3CCOCC3)c3sc(CN(C)c4ncc(C(=O)NO)cn4)cc3n2)c1 [Compound 107] ?
Response given: 183 to 185 °C

Challenge: What about CN(CCCCC(=O)NO)Cc1cc2nc(-c3cccc4[nH]ncc34)nc(N3CCOCC3)c2s1 [Compound 102] ?
Response given: 120 to 122 °C

Challenge: Same again, this time with O=C(CCCCCCNCc1cc2nc(-c3cccc4[nH]ncc34)nc(N3CCOCC3)c2s1)NO [Compound 44]
Response given: 188 to 190 °C

Challenge: Same question, CN(Cc1cc2nc(-c3cc[nH]c3)nc(N3CCOCC3)c2s1)c1ncc(C(=O)NO)cn1 [Compound 197] this time
Response given: 175 to 189 °C

Challenge: Here is the next molecule: Cc1nc2ccc(-c3nc(N4CCOCC4)c4sc(CN(C)c5ncc(C(=O)NO)cn5)cc4n3)cc2[nH]1 [Compound 199]
Response given: 230 to 233 °C
